- System: human liver microsomes, compound remaining, LC-MS
- testDescription: human microsomal compound turnover – biochemical, with and without NADPH, LC-MS, set 2, ADME assay (AID 624452);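 note: compound left measured after 60 min microsomal incubation at 37 °C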
- measurementSetup: measured here: stability without NADPH control; at 1 µM
measurementName: percent remaining without NADPH (%)

INSERT INTO assay_data (compound, value) VALUES
  ('CC(C)C(=O)NC(c1ccco1)c1ccc2cccnc2c1O (configuration not stated)', 76.4),
  ('Cn1cnc([N+](=O)[O-])c1Sc1ncnc2nc[nH]c12', 66.4),
  ('Cc1cc(C)nc(-n2nc(C)c(Sc3ccc(F)cc3)c2N)n1', 79.4),
  ('CC[C@H]1CN2CCc3cc(OC)c(OC)cc3[C@@H]2C[C@@H]1C[C@H]1NCCc2cc(OC)c(OC)cc21', 89.3),
  ('Cc1ccc(NS(=O)(=O)c2ccc3c(c2)CCC(=O)N3)cc1C', 66.3),
  ('COc1nc(-c2ccccc2)nnc1-c1ccccc1', 59.3),
  ('CCCN(CCC)CCNC(=O)C1CCN(Cc2nc(-c3ccc(Cl)cc3)oc2C)CC1', 75.6);
